Tested on: NCI-H810 (Non-Small Cell Lung Carcinoma)
Experimental details: combination Emax (second highest fraction inhibited in the dose matrix, 72 h); higher = more inhibition; extreme values may be limits of the assay
Field: combination Emax. Provide a value for each of the compounds that follow.
Give bare numbers.

Compound: CC1(C)CCC(CN2CCN(c3ccc(C(=O)NS(=O)(=O)c4ccc(NCC5CCOCC5)c([N+](=O)[O-])c4)c(Oc4cnc5[nH]ccc5c4)c3)CC2)=C(c2ccc(Cl)cc2)C1 [Venetoclax] + C=CCn1c(=O)c2cnc(Nc3ccc(N4CCN(C)CC4)cc3)nc2n1-c1cccc(C(C)(C)O)n1 [AZD1775] (first compound max 1 µM, partner max 1 µM)
combination Emax: 0.781
//
Compound: CS(=O)(=O)CCNCc1ccc(-c2ccc3ncnc(Nc4ccc(OCc5cccc(F)c5)c(Cl)c4)c3c2)o1 [Lapatinib] + C[C@@H](Oc1cc(-c2cnn(C3CCNCC3)c2)cnc1N)c1c(Cl)ccc(F)c1Cl [Crizotinib] (first compound max 10 µM, 7x7, partner max 10 µM)
combination Emax: 0.412

Provide combination Emax values for the following items, in order.
1. Cn1cnc2c(F)c(Nc3ccc(Br)cc3Cl)c(C(=O)NOCCO)cc21 [Selumetinib] + C[C@@H]1COCCN1C2=NC(=NC(=C2)C3(CC3)[S@](=N)(=O)C)C4=C5C=CNC5=NC=C4 [AZD6738] (first compound max 10 µM, 7x7, partner max 10 µM)
2. N#Cc1cnc(Nc2cc(NC[C@H]3CNCCO3)c(C(F)(F)F)cn2)cn1 [SRA737] + CCc1c2c(nc3ccc(O)cc13)-c1cc3c(c(=O)n1C2)COC(=O)[C@]3(O)CC [SN-38] (first compound max 10 µM, 7x7, partner max 0.3 µM)
3. COc1nnc2ccc(N3CCC(c4ccc(OCCN5CCN(C)C(=O)[C@H]5C)cc4)CC3)nn12 [AZD5153] + Cn1cnc2c(F)c(Nc3ccc(Br)cc3Cl)c(C(=O)NOCCO)cc21 [Selumetinib] (first compound max 1 µM, 7x7, partner max 10 µM)
4. N#Cc1cnc(Nc2cc(NC[C@H]3CNCCO3)c(C(F)(F)F)cn2)cn1 [SRA737] + C=CCn1c(=O)c2cnc(Nc3ccc(N4CCN(C)CC4)cc3)nc2n1-c1cccc(C(C)(C)O)n1 [AZD1775] (first compound max 10 µM, partner max 1 µM)
5. C=CCn1c(=O)c2cnc(Nc3ccc(N4CCN(C)CC4)cc3)nc2n1-c1cccc(C(C)(C)O)n1 [AZD1775] + Nc1ccn([C@@H]2O[C@H](CO)[C@@H](O)C2(F)F)c(=O)n1 [Gemcitabine] (first compound max 1 µM, partner max 0.3 µM)
6. C[C@@H]1COCCN1c1cc(C2([S@](C)(=N)=O)CC2)nc(-c2ccnc3[nH]ccc23)n1 [AZD6738] + O=C(c1cc(Cc2n[nH]c(=O)c3ccccc23)ccc1F)N1CCN(C(=O)C2CC2)CC1 [Olaparib] (first compound max 10 µM, 7x7, partner max 10 µM)

0.414
0.829
0.587
0.81
0.828
0.766

====

Tested on: AN3-CA (Endometrial Carcinoma);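 also: after 72 h of two-drug dosing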
Experimental details: Bliss excess, mean over the matrix (fraction); higher = more synergy
Threshold check on Bliss excess: at or above -0.03 gives y, strictly below gives n.

Compound: Cc1cc2ncnn2cc1Nc1ncc2c(n1)n(C1CCOCC1)c(=O)n2C [AZD7648] + O=C(c1cc(Cc2n[nH]c(=O)c3ccccc23)ccc1F)N1CCN(C(=O)C2CC2)CC1 [Olaparib] (first compound max 10 µM, 7x7, partner max 10 µM)
Assigned label: n

Compound: COc1nnc2ccc(N3CCC(c4ccc(OCCN5CCN(C)C(=O)[C@H]5C)cc4)CC3)nn12 [AZD5153] + CCN(CCO)CCCOc1ccc2c(Nc3cc(CC(=O)Nc4cccc(F)c4)[nH]n3)ncnc2c1 [AZD2811] (first compound max 1 µM, 7x7, partner max 1 µM)
Assigned label: n

Compound: C=CCn1c(=O)c2cnc(Nc3ccc(N4CCN(C)CC4)cc3)nc2n1-c1cccc(C(C)(C)O)n1 [AZD1775] + O=C(c1cc(Cc2n[nH]c(=O)c3ccccc23)ccc1F)N1CCN(C(=O)C2CC2)CC1 [Olaparib] (first compound max 1 µM, partner max 10 µM)
Assigned label: y

Compound: C=CCn1c(=O)c2cnc(Nc3ccc(N4CCN(C)CC4)cc3)nc2n1-c1cccc(C(C)(C)O)n1 [AZD1775] + C[C@@H]1COCCN1C2=NC(=NC(=C2)C3(CC3)[S@](=N)(=O)C)C4=C5C=CNC5=NC=C4 [AZD6738] (first compound max 1 µM, partner max 10 µM)
Assigned label: y

Compound: CC(=O)c1c(C)c2cnc(Nc3ccc(N4CCNCC4)cn3)nc2n(C2CCCC2)c1=O [Palbociclib] + Cn1cnc2c(F)c(Nc3ccc(Br)cc3Cl)c(C(=O)NOCCO)cc21 [Selumetinib] (first compound max 10 µM, 7x7, partner max 10 µM)
Assigned label: y

Compound: CC1(C)CCC(CN2CCN(c3ccc(C(=O)NS(=O)(=O)c4ccc(NCC5CCOCC5)c([N+](=O)[O-])c4)c(Oc4cnc5[nH]ccc5c4)c3)CC2)=C(c2ccc(Cl)cc2)C1 [Venetoclax] + Cc1cc2ncnn2cc1Nc1ncc2c(n1)n(C1CCOCC1)c(=O)n2C [AZD7648] (first compound max 1 µM, 7x7, partner max 10 µM)
Assigned label: y

Compound: NC1(C(=O)N[C@@H](CCO)c2ccc(Cl)cc2)CCN(c2ncnc3[nH]ccc23)CC1 [Capivasertib] + CCN(CCO)CCCOc1ccc2c(Nc3cc(CC(=O)Nc4cccc(F)c4)[nH]n3)ncnc2c1 [AZD2811] (first compound max 10 µM, 7x7, partner max 1 µM)
Assigned label: y

Compound: Cc1c2c(nn1C)CSCc1cc(n(C)n1)CSc1cc(c3ccccc3c1)OCCCc1c(C(=O)O)n(C)c3c-2c(Cl)ccc13 [AZD5991] + C=CCn1c(=O)c2cnc(Nc3ccc(N4CCN(C)CC4)cc3)nc2n1-c1cccc(C(C)(C)O)n1 [AZD1775] (first compound max 1 µM, partner max 1 µM)
Assigned label: n

Is Bliss excess at least -0.03? Consider CC1(C)CCC(CN2CCN(c3ccc(C(=O)NS(=O)(=O)c4ccc(NCC5CCOCC5)c([N+](=O)[O-])c4)c(Oc4cnc5[nH]ccc5c4)c3)CC2)=C(c2ccc(Cl)cc2)C1 [Venetoclax] + C[C@@H](Nc1cc(F)cc(F)c1)c1cc(C(=O)N(C)C)cc2c(=O)cc(N3CCOCC3)oc12 [AZD8186] (first compound max 1 µM, 7x7, partner max 3 µM)
n
